# Test system: HCT-116
# method: Antiproliferative activity against human HCT116 cells by SRB assay
# Format: functional, cell-based
Criterion: IC50 strictly under 10 µM. Met: MET. Not met: NOT MET.

QUERY: Would you kindly verify if IC50 of "COc1ccc(NC(=O)c2cc(-c3ccccc3)nc3ccc(Cl)cc23)c(C)c1" is strictly less than 10 µM?
RESULT: NOT MET

QUERY: Would you kindly verify if IC50 of "COc1ccc(NC(=O)c2cc(-c3ccc(C)cc3)nc3ccccc23)c(C)c1" is strictly less than 10 µM?
RESULT: MET

QUERY: Would you kindly verify if IC50 of "C=CCNC(=S)NC(=O)c1cc(-c2ccccc2)nc2ccccc12" is strictly less than 10 µM?
RESULT: NOT MET

QUERY: Would you kindly verify if IC50 of "COc1cccc(NC(=O)c2cc(-c3ccccc3)nc3ccccc23)c1" is strictly less than 10 µM?
RESULT: NOT MET

QUERY: Would you kindly verify if IC50 of "CSc1cccc(NC(=O)c2cc(-c3ccccc3)nc3ccccc23)c1" is strictly less than 10 µM?
RESULT: NOT MET

QUERY: Would you kindly verify if IC50 of "COc1ccc(NC(=O)c2cc(-c3ccccc3)nc3ccccc23)c(C)c1" is strictly less than 10 µM?
RESULT: MET

QUERY: Would you kindly verify if IC50 of "COc1cc(NC(=O)c2cc(-c3ccc(C)cc3)nc3ccccc23)cc(OC)c1OC" is strictly less than 10 µM?
RESULT: MET

QUERY: Would you kindly verify if IC50 of "COc1cc(NC(=O)c2cc(-c3ccccc3)nc3ccc(Cl)cc23)cc(OC)c1OC" is strictly less than 10 µM?
RESULT: NOT MET

QUERY: Would you kindly verify if IC50 of "COc1ccc(NC(=O)c2cc(-c3ccc(C(F)(F)F)cc3)nc3ccccc23)c(C)c1" is strictly less than 10 µM?
RESULT: NOT MET

QUERY: Would you kindly verify if IC50 of "COC(=O)c1sccc1NC(=O)c1cc(-c2ccccc2)nc2ccccc12" is strictly less than 10 µM?
RESULT: NOT MET

QUERY: Would you kindly verify if IC50 of "COc1cc(NC(=O)c2cc(-c3ccc(C)cc3)nc3ccc(C)cc23)cc(OC)c1OC" is strictly less than 10 µM?
RESULT: MET

QUERY: Would you kindly verify if IC50 of "COc1ccc(NC(=O)c2cc(-c3ccccc3)nc3ccc(Cl)cc23)cc1" is strictly less than 10 µM?
RESULT: NOT MET

QUERY: Would you kindly verify if IC50 of "COc1ccc(NC(=O)c2cc(-c3ccccc3)nc3ccccc23)cc1" is strictly less than 10 µM?
RESULT: MET

QUERY: Would you kindly verify if IC50 of "COc1ccc(NC(=O)c2c3c(nc4ccc(Cl)cc24)-c2ccccc2CC3)c(C)c1" is strictly less than 10 µM?
RESULT: NOT MET

QUERY: Would you kindly verify if IC50 of "COc1cc(NC(=O)c2cc(-c3cccc(C)c3)nc3ccccc23)cc(OC)c1OC" is strictly less than 10 µM?
RESULT: NOT MET

QUERY: Would you kindly verify if IC50 of COc1cc2c(c(OC)c1OC)-c1ccc(OC)c(=O)cc1[C@@H](NC(C)=O)CC2 [COLCHICINE] is strictly less than 10 µM?
RESULT: MET

QUERY: Would you kindly verify if IC50 of "COc1ccc(NC(=O)c2cc(-c3ccc(C)cc3)nc3ccc(C)cc23)cc1" is strictly less than 10 µM?
RESULT: NOT MET

====

# System: A549
# method: Antiproliferative activity against human A549 cells by SRB assay
# Assay type: functional, cell-based
Criterion: IC50 strictly under 20 µM. Met: 1. Not met: -1.

Solved entries:
smiles_text=Cc1cc(NC(=O)c2cc(-c3ccccc3)nc3ccccc23)no1 system=A549 discrete_label=-1
smiles_text=COc1ccc(NC(=O)c2cc(-c3ccccc3C)nc3ccccc23)c(C)c1 system=A549 discrete_label=-1
smiles_text=COc1cc(NC(=O)c2cc(-c3cccc(C)c3)nc3ccccc23)cc(OC)c1OC system=A549 discrete_label=1
smiles_text=COc1ccc(NC(=O)c2cc(-c3cccc(C)c3)nc3ccccc23)c(C)c1 system=A549 discrete_label=-1
smiles_text=COC(=O)c1sccc1NC(=O)c1cc(-c2ccccc2)nc2ccccc12 system=A549 discrete_label=-1

QUERY: Would you kindly verify if IC50 of "COc1ccc(NC(=O)c2c3c(nc4ccc(Cl)cc24)-c2ccccc2CC3)cc1" is strictly less than 20 µM?
RESULT: -1

QUERY: Would you kindly verify if IC50 of "COc1ccc(NC(=O)c2cc(-c3ccccc3C)nc3ccccc23)cc1" is strictly less than 20 µM?
RESULT: -1

QUERY: Would you kindly verify if IC50 of "COc1ccc(NC(=O)c2cc(-c3ccccc3)nc3ccccc23)c(C)c1" is strictly less than 20 µM?
RESULT: -1

QUERY: Would you kindly verify if IC50 of "COc1ccc(NC(=O)c2cc(-c3ccc(C)cc3)nc3ccccc23)c(C)c1" is strictly less than 20 µM?
RESULT: 1

QUERY: Would you kindly verify if IC50 of "COc1ccc(NC(=O)c2cc(-c3ccc4c(c3)OCO4)nc3ccccc23)cc1" is strictly less than 20 µM?
RESULT: -1

====

# Tested on: HCT-116
# method: Antiproliferative activity against human HCT116 cells by SRB assay
# Format: functional, cell-based
Criterion: IC50 strictly under 30 µM. Met: criterion met. Not met: criterion not met.

Solved entries:
smiles_text=Cc1cc(NC(=O)c2cc(-c3ccccc3)nc3ccccc23)no1 discrete_label="criterion met"
smiles_text=CCOc1ccc(NC(=O)c2cc(-c3ccccc3)nc3ccccc23)cc1 discrete_label="criterion not met"
smiles_text=COc1ccc(NC(=O)c2cc(-c3cccc(C)c3)nc3ccccc23)cc1 discrete_label="criterion met"

QUERY: Would you kindly verify if IC50 of "COc1ccc(NC(=O)c2cc(-c3ccccc3C)nc3ccccc23)cc1" is strictly less than 30 µM?
RESULT: criterion not met

====

# Tested on: A549
# method: Antiproliferative activity against human A549 cells by SRB assay
# Assay type: functional, cell-based
IC50 for assorted compounds
Numbers only; they are read as µM.

Some compounds with recorded IC50:
smiles_text=COc1ccc(NC(=O)c2cc(-c3cccc(C)c3)nc3ccccc23)cc1 system=A549 numeric_result=30.5
smiles_text=COc1ccc(NC(=O)c2cc(-c3ccc(C)cc3)nc3ccc(C)cc23)cc1 system=A549 numeric_result=29.7
smiles_text=COc1cc2c(c(OC)c1OC)-c1ccc(OC)c(=O)cc1[C@@H](NC(C)=O)CC2 system=A549 numeric_result=0.02
smiles_text=COc1cc(NC(=O)c2cc(-c3ccc(C)cc3)nc3ccccc23)cc(OC)c1OC system=A549 numeric_result=5.7
smiles_text=COc1cc(NC(=O)c2cc(-c3ccc(C)cc3)nc3ccc(C)cc23)cc(OC)c1OC system=A549 numeric_result=20.3

QUERY: Lab note: need IC50 for "COc1cccc(NC(=O)c2cc(-c3ccccc3)nc3ccccc23)c1" on A549, anyone have it?
RESULT: 32.5

====

# System: HCT-116
# method: Antiproliferative activity against human HCT116 cells by SRB assay
# Assay type: functional, cell-based
Criterion: IC50 strictly under 40 µM. Met: yes. Not met: no.

Solved entries:
compound=COc1ccc(NC(=O)c2cc(-c3ccccc3C)nc3ccccc23)c(C)c1 system=HCT-116 discrete_label=no
compound=COc1ccc(NC(=O)c2cc(-c3ccc4c(c3)OCO4)nc3ccccc23)cc1 system=HCT-116 discrete_label=no
compound=COc1ccc(NC(=O)c2cc(-c3ccccc3)nc3ccc(F)cc23)cc1 system=HCT-116 discrete_label=yes
compound=COc1ccc(NC(=O)c2cc(-c3cccc(C)c3)nc3ccccc23)c(C)c1 system=HCT-116 discrete_label=yes
compound="O=C(NC(Cc1ccccc1)C(=O)OCc1ccccc1)c1cc(-c2ccccc2)nc2ccccc12 (stereo unspecified)" system=HCT-116 discrete_label=yes

Next compound, please.
QUERY: Would you kindly verify if IC50 of "COc1cc(NC(=O)c2cc(-c3ccccc3)nc3ccccc23)cc(OC)c1OC" is strictly less than 40 µM?
RESULT: yes

====

# Tested on: HCT-116
# method: Antiproliferative activity against human HCT116 cells by SRB assay
# Assay type: functional, cell-based
IC50 for assorted compounds
Numbers only; they are read as µM.

smiles_text=COc1ccc(NC(=O)c2cc(-c3ccc(C)cc3)nc3ccc(C)cc23)c(C)c1 system=HCT-116 numeric_result=11.9
smiles_text=COc1ccc(NC(=O)c2c3c(nc4ccc(Cl)cc24)-c2ccccc2CC3)cc1 system=HCT-116 numeric_result=39.5

Field: next compound
QUERY: Reported IC50 for "COc1ccc(NC(=O)c2cc(-c3ccc(C)cc3)nc3ccccc23)cc1" : what is it?
RESULT: 3.7
